Target: hCRTH2 (Homo sapiens, UniProt Q9Y5Y4)
Construct: expressed in transfected cells; host or cells: HEK (human embryonic kidney) cells expressing hCRTH2; membrane preparation
Assay: Radioligand binding assay ([3H]PGD2 competition, HEK-hCRTH2 membranes)
Conditions: [3H]PGD2 binding, rated A-E (Table A)
Ki values, listed per item

Some compounds with known Ki results, for comparison:
{"COMPOUND": "C[C@@H](NC(=O)c1ccc2nc(-c3ccc(F)cc3)c(CCCCC(=O)O)nc2c1)c1ccccc1 [compound 132]", "Ki": "2.1 to 20 nM"}
{"COMPOUND": "C[C@H](NC(=O)c1ccc2nc(-c3ccc(F)cc3)c(CCCCC(=O)O)nc2c1)c1ccc(Cl)cc1 [compound 131]", "Ki": "2.1 to 20 nM"}
{"COMPOUND": "O=C(O)CCCCc1nc2cc(C(=O)N[C@H]3CCc4ccccc43)ccc2nc1-c1ccc(F)cc1 [compound 230]", "Ki": "0.1 to 2 nM"}

Turning now to a further compound:
# Ki of N#Cc1ccc(CNC(=O)c2ccc3nc(-c4ccc(Cl)cc4)c(CCc4cccc(CC(=O)O)c4)nc3c2)cc1 [19F] = 2.1 to 20 nM

---

Entries annotated with measured pKi
Target: hCRTH2 (Homo sapiens, UniProt Q9Y5Y4)
Construct: expressed in transfected cells; host or cells: HEK (human embryonic kidney) cells expressing hCRTH2; membrane preparation
Sequence (Q9Y5Y4 1-395): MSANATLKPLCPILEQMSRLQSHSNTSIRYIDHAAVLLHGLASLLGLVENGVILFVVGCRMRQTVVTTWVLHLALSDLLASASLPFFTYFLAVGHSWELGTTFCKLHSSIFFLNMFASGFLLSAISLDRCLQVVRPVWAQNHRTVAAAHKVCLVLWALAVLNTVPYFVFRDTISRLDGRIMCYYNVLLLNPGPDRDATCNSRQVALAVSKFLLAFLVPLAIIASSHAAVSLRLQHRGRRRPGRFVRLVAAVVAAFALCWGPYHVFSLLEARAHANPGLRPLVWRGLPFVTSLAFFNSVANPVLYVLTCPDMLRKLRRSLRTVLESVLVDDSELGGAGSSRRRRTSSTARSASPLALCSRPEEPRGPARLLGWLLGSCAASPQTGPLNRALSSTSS
Test: Radioligand binding assay ([3H]PGD2 competition, HEK-hCRTH2 membranes)
Conditions: [3H]PGD2 competition, Table B
pKi: −log10 of the molar value.

These recorded examples may help you get a feel for the data.
{"COMPOUND": "O=C(O)CCCCc1nc2cc(C(=O)N[C@@H]3COc4ccccc43)ccc2nc1-c1ccccc1", "pKi": "7.70 to 8.68"}
{"COMPOUND": "O=C(O)CCCCc1nc2cc(C(=O)N3CCC4(CCOC4)CC3)ccc2nc1-c1ccc(Cl)cc1", "pKi": "7.70 to 8.68"}
{"COMPOUND": "Cc1cc(N2CCN(C(=O)c3ccc4nc(-c5ccc(Cl)cc5)c(CCCCC(=O)O)nc4c3)CC2)sn1", "pKi": "7.70 to 8.68"}

Query `O=C(O)CCCCc1nc2cc(C(=O)N3CCC(c4ccc(Cl)cc4)CC3)ccc2nc1-c1ccc(Cl)cc1` on hCRTH2 (Homo sapiens, UniProt Q9Y5Y4); pKi returned: 8.70 to 10.00

pKi of O=C(O)CCCCc1nc2cc(C(=O)N3CCCCC3c3ccccc3)ccc2nc1-c1ccc(Cl)cc1 (stereo not drawn) , assay on hCRTH2 (Homo sapiens, UniProt Q9Y5Y4), is 7.70 to 8.68

hCRTH2 (Homo sapiens, UniProt Q9Y5Y4) assay, compound O=C(O)CCCCc1nc2cc(C(=O)NC3CC(=O)Nc4ccccc43)ccc2nc1-c1ccc(Cl)cc1 (stereo not drawn) , recorded pKi = 7.70 to 8.68

// assay hCRTH2 (Homo sapiens, UniProt Q9Y5Y4), entry `O=C(O)CCCCc1nc2cc(C(=O)N[C@@H]3CCOc4cc(F)c(F)cc43)ccc2nc1-c1ccccc1` , pKi value = 7.70 to 8.68

Record for N#Cc1ccc(C2CN(C(=O)c3ccc4nc(-c5ccc(Cl)cc5)c(CC5CCC(C(=O)O)C5)nc4c3)C2)cc1 (stereo not drawn) under target or system hCRTH2 (Homo sapiens, UniProt Q9Y5Y4): pKi reported as 7.70 to 8.68

pKi for hCRTH2 (Homo sapiens, UniProt Q9Y5Y4) with input CC1(C)Oc2ccccc2C(NC(=O)c2ccc3nc(-c4ccc(Cl)cc4)c(CCCCC(=O)O)nc3c2)C1O (stereo not drawn) equals 7.70 to 8.68

---

Biological target: hCRTH2 (Homo sapiens, UniProt Q9Y5Y4)
Construct: expressed in transfected cells; host or cells: HEK (human embryonic kidney) cells expressing hCRTH2; membrane preparation
Sequence (Q9Y5Y4 1-395): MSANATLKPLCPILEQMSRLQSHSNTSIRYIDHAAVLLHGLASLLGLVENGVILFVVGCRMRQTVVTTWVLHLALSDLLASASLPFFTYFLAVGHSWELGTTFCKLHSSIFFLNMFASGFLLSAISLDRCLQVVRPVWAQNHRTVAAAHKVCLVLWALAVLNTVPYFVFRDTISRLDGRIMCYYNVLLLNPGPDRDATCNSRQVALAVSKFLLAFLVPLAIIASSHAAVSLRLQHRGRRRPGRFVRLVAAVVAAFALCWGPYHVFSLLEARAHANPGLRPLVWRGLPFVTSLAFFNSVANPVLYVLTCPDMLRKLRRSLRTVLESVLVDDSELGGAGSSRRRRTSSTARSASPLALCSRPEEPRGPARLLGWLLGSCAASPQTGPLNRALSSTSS
Experiment: Radioligand binding assay ([3H]PGD2 competition, HEK-hCRTH2 membranes)
Settings: [3H]PGD2 binding, rated A-E (Table A)
PROPERTY: Ki

Example entries and their recorded answers appear below.
{"MOLECULE": "O=C(O)CCCCc1nc2cc(C(=O)C3CC3)ccc2nc1-c1ccc(F)cc1 [compound 5]", "Ki": "0.1 to 2 nM"}
{"MOLECULE": "CC(CCCc1nc2cc(C(=O)N[C@@H](C)c3ccc(F)cc3)ccc2nc1-c1ccc(F)cc1)C(=O)O (stereo partly shown) [compound 210]", "Ki": "2.1 to 20 nM"}
{"MOLECULE": "O=C(O)CCCCc1nc2cc(C(=O)N3CCC(c4ccccc4)CC3)ccc2nc1-c1ccc(C(F)(F)F)cc1Cl [26AA]", "Ki": "0.1 to 2 nM"}
{"MOLECULE": "O=C(O)CCCCc1nc2cc(C(=O)N3CCN(c4ccccc4)CC3)ccc2nc1-c1ccc(C(F)(F)F)cc1 [3Y]", "Ki": "0.1 to 2 nM"}

Reported Ki ( CC(CCc1nc2cc(C(=O)N3CC(c4ccccc4)C3)ccc2nc1-c1ccc(Cl)cc1)CC(=O)O (stereo not shown) [17F] ) = 0.1 to 2 nM

Briefly, Ki measured for C[C@@H](NC(=O)c1ccc2nc(-c3ccc(Cl)cc3)c(CC3CCC(C(=O)O)C3)nc2c1)c1ccc(F)cc1 (mixture of isomers) [compound 28] : 2.1 to 20 nM

Form field Ki, entry COc1ccc(C2CCN(C(=O)c3ccc4nc(-c5ccccc5)c(CCCCC(=O)O)nc4c3)C2)cc1 (stereo not shown) [15N] : 2.1 to 20 nM

---

Form field: pKi (one value per entry).
Molecular target: hCRTH2 (Homo sapiens)
Construct: expressed in transfected cells; host or cells: HEK (human embryonic kidney) cells expressing hCRTH2; membrane preparation
Test: Radioligand binding assay ([3H]PGD2 competition, HEK-hCRTH2 membranes)
Conditions: [3H]PGD2 competition, Table B
pKi: −log10 of the molar value.

{"COMPOUND": "O=C(O)CCCCc1nc2cc(C(=O)N[C@@H]3c4ccccc4C[C@@H]3O)ccc2nc1-c1ccc(F)cc1", "pKi": "6.70 to 7.70"}
{"COMPOUND": "O=C(O)CCCCc1nc2cc(C(=O)N[C@@H]3CCCc4ccccc43)c(F)cc2nc1-c1ccc(Cl)cc1", "pKi": "7.70 to 8.68"}
{"COMPOUND": "C[C@@H]1CN(c2ccc(F)cc2)CCN1C(=O)c1ccc2nc(-c3ccc(F)cc3)c(CCCCC(=O)O)nc2c1", "pKi": "7.70 to 8.68"}
{"COMPOUND": "C[C@H](CCCc1nc2cc(C(=O)N[C@H]3CCCc4ccccc43)ccc2nc1-c1ccc(F)cc1)C(=O)O", "pKi": "6.70 to 7.70"}
{"COMPOUND": "CC1(C)CC(NC(=O)c2ccc3nc(-c4ccc(Cl)cc4)c(CCCCC(=O)O)nc3c2)c2ccccc2O1 (centres unmarked) [compound 564]", "pKi": "7.70 to 8.68"}

Field pKi (system: hCRTH2 (Homo sapiens)) for entry `O=C(O)CCCCc1nc2cc(C(=O)N3CCC4(CC3)COc3ccccc34)ccc2nc1-c1ccc(Cl)cc1` = 7.70 to 8.68

pKi on hCRTH2 (Homo sapiens) for `COc1ccccc1C1CCN(C(=O)c2ccc3nc(-c4ccc(F)cc4)c(CCCCC(=O)O)nc3c2)CC1` is 7.70 to 8.68

The value of pKi recorded for `O=C(O)CCCCc1nc2cc(C(=O)N3CCC4(CC3)CCN(c3ccccc3)C4=O)ccc2nc1-c1ccc(Cl)cc1` when tested on hCRTH2 (Homo sapiens) reads 7.70 to 8.68

Form field pKi for item O=C(O)CCCCc1nc2cc(C(=O)N3CC[C@H](c4ccc(F)cc4)C3)ccc2nc1-c1ccc(Cl)cc1 [compound 577] on hCRTH2 (Homo sapiens): 8.70 to 10.00
